Where a name gives a salt, the structure may show the parent alone.
Measured melting point of individual entries

// solved cases for melting point follow
QUERY: Using the record for COC(=O)C1=C(C)NC(C)=C(C(=O)NCCCN2CCC(c3ccccc3)(c3ccccc3)CC2)C1c1ccc(C(C)C)cc1 (stereo not shown) [Example 18] , report its melting point.
RESULT: 163 to 163.5 °C

QUERY: Name the recorded melting point for COC(=O)C1=C(C)NC(C)=C(C(=O)NCCCN2CCC(c3ccccc3)(c3ccccc3)CC2)C1c1ccc(C(F)(F)F)cc1 (stereo not shown) [Example 1] .
RESULT: 228 to 231 °C

QUERY: Form field: reported melting point of COC(=O)C1=C(C)NC(C)=C(C(=O)NCCCN2CCC(c3ccccc3)(c3ccccc3)CC2)C1c1ccc(-c2ccccc2)cc1 (stereo not shown) [Example 7]
RESULT: 136 to 139 °C

More entries:
QUERY: Fill in: melting point of CC1=C(C(N)=O)C(c2ccc([N+](=O)[O-])cc2)C(C(=O)NCCCN2CCC(c3ccccc3)(c3ccccc3)CC2)=C(CCCCCN)N1 (stereo not shown) [Example 169] is ___
RESULT: 75 to 78 °C

QUERY: // lookup melting point for CCC1=C(C(N)=O)C(c2ccc([N+](=O)[O-])cc2)C(C(=O)NCCCN2CCC3(CC2)C(=O)NCN3c2ccccc2)=C(CC)N1 (stereo not shown) (as salt: hydrochloride) (hydrate or solvate) [Example 105, hydrochloride hydrate]
RESULT: 187 °C (dec.)

QUERY: What value of melting point has been reported for the following compound? CCC1=C(C(=O)NC)C(c2ccc([N+](=O)[O-])cc2)C(C(=O)NCCCN2CCC(C(N)=O)(c3ccccc3)CC2)=C(CC)N1 (stereo not shown) [Example 110]
RESULT: 124 °C (dec.)

QUERY: I would be grateful if you could share the reported melting point for CCC1=C(C(=O)NCCCN2CCC(c3ccccc3)(c3ccccc3)CC2)C(c2ccc([N+](=O)[O-])cc2)C(C(N)=O)=C(C)N1 (stereo not shown) (as salt: hydrochloride) [Example 81] .
RESULT: 243 to 248 °C (dec.)

----------
Ki values for the compounds below.
# tgt: α2A receptor (Homo sapiens)
# Construct: host or cells: LM(tk-) cells, line L-α2A
# Sequence (P08913 1-465): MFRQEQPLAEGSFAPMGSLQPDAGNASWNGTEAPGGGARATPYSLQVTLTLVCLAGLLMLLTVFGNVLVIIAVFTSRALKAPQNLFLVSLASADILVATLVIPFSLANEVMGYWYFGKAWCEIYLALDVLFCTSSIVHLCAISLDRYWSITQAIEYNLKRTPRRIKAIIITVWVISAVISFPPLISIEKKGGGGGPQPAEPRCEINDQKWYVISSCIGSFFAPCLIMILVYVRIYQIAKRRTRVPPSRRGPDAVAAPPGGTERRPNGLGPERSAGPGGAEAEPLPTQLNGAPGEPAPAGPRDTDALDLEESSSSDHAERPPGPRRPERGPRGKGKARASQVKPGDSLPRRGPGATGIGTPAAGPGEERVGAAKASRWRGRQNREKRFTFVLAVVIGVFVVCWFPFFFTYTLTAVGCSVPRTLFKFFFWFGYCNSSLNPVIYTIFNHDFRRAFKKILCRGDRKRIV
# measurementDescription: Competition binding, [3H]rauwolscine, human α2A receptor
# conditionInfo: [3H]rauwolscine, human α2A receptor, LM(tk−) cells; read-out: pKi alpha-2 2a (converted)
Structures can show the parent of a compound that is named as a salt.
Please provide the amount together with its unit, number first.

In the examples that follow, each entry is paired with its recorded Ki.
QUERY: Data request, read-out Ki, for COc1ccc(C2(c3ccccc3)CCN(CCCNC(=O)C3=C(C)NC(C)=C(C(N)=O)C3c3ccc([N+](=O)[O-])cc3)CC2)cc1 (stereo not drawn) [Example 98, hydrochloride]
RESULT: 355 nM

QUERY: Any idea what Ki was measured for CCC1=C(C(=O)NC)C(c2ccc([N+](=O)[O-])cc2)C(C(=O)NCCCN2CCC(c3ccccc3)(c3ccccc3)CC2)=C(CC)N1 (stereo not drawn) ?
RESULT: 457 nM

QUERY: Quick one: Ki for CCC1=C(C(N)=O)C(c2ccc([N+](=O)[O-])cc2)C(C(=O)NCCCN2CCC(c3ccccc3)(c3ccccc3)CC2)=C(CC)N1 (stereo not drawn) ?
RESULT: 363 nM

QUERY: Request the reported Ki associated with CCC1=C(C(N)=O)C(c2ccc([N+](=O)[O-])cc2)C(C(=O)NCCCN2CCC(C#N)(c3ccccc3)CC2)=C(CC)N1 (single isomer, unassigned; (+)) [(+)-102]
RESULT: 3890 nM

QUERY: Find the recorded Ki belonging to CCC1=C(C(=O)OCCC#N)C(c2ccc([N+](=O)[O-])cc2)C(C(=O)NCCCN2CCC(c3ccccc3)(c3ccccc3)CC2)=C(COC)N1 (stereo not drawn) and report it.
RESULT: 661 nM

QUERY: Given CCC1=C(C(N)=O)C(c2ccc(S(C)(=O)=O)cc2)C(C(=O)NCCCN2CCC(c3ccccc3)(c3ccccc3)CC2)=C(C)N1 (stereo not drawn) , state its recorded Ki.
RESULT: 3890 nM

QUERY: For the compound CC1=C(C(=O)NCCCN2CCC(c3ccccc3)(c3ccccc3)CC2)C(c2ccc([N+](=O)[O-])cc2)C(C(=O)OCCC#N)=C(C)N1 (stereo not drawn) , what Ki is on record?
RESULT: 457 nM

QUERY: For `CCC1=C(C(=O)NCCCN2CCC(c3ccccc3)(c3ccccc3)CC2)C(c2cccc(OC)c2)C(C(=O)NCCCN2CCC(c3ccccc3)(c3ccccc3)CC2)=C(CC)N1` , what is its reported Ki?
RESULT: 257 nM

Now take the following compound into account.
QUERY: Which measured Ki value corresponds to CCC1=C(C(=O)NCCCN2CCC(c3ccccc3)(c3ccccc3)CC2)C(c2ccc([N+](=O)[O-])cc2)C(C(=O)NC)=C(COCCN=[N+]=[N-])N1 (stereo not drawn) ?
RESULT: 562 nM

----------
# tgt: L-type calcium channel (Rattus norvegicus)
# Construct: membrane fragments of rat cardiac muscle; from tissue; host or cells: rat cardiac muscle membranes
# Sequence (P22002 whole entry, other chains not shown, the tested form may be a part): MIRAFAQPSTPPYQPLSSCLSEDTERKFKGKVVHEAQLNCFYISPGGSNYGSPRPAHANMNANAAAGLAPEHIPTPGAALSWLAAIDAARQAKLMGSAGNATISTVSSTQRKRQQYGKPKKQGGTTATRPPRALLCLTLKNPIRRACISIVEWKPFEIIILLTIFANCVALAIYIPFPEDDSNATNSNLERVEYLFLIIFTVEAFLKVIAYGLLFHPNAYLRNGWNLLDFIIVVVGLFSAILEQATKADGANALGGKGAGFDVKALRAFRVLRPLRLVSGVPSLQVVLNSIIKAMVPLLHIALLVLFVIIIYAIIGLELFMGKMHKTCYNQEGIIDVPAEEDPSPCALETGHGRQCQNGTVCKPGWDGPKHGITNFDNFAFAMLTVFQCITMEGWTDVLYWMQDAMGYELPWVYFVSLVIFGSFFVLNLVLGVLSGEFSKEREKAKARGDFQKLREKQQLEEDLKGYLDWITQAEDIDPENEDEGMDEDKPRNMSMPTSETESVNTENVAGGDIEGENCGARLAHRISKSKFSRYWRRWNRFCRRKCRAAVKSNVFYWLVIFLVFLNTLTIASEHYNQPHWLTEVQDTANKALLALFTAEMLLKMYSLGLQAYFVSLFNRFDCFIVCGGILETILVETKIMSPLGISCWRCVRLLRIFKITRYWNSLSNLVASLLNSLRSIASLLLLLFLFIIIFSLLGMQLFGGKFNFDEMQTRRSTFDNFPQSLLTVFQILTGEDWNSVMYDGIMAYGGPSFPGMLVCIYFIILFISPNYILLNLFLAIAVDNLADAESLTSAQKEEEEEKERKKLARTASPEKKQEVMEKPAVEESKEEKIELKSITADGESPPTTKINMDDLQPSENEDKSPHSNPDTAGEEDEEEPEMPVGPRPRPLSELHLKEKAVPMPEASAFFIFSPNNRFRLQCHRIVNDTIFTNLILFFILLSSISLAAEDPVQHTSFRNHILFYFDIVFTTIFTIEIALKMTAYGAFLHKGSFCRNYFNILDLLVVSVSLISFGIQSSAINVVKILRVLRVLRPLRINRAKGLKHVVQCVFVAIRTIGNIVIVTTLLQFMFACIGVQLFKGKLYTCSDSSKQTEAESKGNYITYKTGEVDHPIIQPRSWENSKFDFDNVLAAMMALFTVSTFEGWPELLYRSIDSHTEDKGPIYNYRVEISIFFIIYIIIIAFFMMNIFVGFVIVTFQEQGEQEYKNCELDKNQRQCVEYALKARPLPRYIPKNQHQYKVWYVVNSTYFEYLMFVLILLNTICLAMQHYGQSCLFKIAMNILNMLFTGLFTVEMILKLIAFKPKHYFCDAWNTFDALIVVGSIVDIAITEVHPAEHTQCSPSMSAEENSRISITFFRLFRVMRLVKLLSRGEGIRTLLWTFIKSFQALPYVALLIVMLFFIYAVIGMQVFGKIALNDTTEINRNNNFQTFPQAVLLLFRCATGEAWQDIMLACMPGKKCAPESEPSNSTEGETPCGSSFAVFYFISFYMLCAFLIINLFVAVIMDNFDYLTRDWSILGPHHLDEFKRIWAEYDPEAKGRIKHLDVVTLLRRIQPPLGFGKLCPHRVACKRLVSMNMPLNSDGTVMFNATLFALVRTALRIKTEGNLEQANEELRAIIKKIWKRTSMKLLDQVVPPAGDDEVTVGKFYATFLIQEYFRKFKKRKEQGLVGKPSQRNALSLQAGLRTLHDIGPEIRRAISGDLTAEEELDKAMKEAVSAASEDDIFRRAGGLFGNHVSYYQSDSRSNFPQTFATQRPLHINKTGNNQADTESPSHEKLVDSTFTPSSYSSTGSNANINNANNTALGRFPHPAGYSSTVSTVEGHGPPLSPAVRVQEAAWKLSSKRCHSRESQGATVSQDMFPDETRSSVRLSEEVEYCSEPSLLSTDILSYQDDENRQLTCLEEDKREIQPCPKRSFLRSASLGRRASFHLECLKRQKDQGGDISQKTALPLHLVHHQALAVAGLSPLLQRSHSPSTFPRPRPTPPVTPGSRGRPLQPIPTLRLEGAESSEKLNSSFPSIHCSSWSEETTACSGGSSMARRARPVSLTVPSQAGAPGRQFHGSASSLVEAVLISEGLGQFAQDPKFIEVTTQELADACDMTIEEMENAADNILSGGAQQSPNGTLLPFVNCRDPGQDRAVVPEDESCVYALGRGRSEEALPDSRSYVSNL
# Sequence (P54290 25-944 partner limits assumed, other chains not shown): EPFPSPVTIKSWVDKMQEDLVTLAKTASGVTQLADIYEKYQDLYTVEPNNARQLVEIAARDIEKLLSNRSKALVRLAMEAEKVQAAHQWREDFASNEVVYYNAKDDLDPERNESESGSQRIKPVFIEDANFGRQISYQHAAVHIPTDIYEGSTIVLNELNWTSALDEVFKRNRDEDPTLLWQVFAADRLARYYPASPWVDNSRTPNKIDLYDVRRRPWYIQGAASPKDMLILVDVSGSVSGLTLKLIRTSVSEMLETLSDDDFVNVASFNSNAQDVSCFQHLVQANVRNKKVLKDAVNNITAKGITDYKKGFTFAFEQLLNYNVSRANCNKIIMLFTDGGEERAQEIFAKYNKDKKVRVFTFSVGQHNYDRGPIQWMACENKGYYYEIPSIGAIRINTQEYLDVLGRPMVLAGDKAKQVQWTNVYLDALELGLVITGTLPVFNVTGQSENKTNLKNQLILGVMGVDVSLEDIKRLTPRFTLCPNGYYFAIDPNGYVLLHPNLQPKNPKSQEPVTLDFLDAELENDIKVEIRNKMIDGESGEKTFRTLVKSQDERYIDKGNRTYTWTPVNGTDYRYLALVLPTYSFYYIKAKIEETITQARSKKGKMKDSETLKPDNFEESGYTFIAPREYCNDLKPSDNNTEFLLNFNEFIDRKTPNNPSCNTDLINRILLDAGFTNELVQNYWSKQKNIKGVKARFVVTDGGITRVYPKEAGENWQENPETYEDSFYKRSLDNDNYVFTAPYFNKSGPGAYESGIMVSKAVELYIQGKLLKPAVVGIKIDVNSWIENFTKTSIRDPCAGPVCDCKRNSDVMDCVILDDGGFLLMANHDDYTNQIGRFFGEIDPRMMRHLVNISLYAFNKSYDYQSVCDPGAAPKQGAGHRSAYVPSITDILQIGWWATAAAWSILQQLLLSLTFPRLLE
# Sequence (P54290 945-1091 partner limits assumed, other chains not shown): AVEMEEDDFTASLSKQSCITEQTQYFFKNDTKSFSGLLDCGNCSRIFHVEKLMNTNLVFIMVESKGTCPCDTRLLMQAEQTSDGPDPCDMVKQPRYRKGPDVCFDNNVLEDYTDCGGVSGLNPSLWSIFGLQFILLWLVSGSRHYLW
# measurementDescription: Competition binding of [3H]nitrendipine to membrane fragments of rat cardiac muscle
# conditionInfo: [3H]nitrendipine, rat cardiac muscle membranes; SEM and n in lines below; read-out: pKi Ca (converted)
Where a name gives a salt, the structure may show the parent alone.
measuredProperty: log10 of Ki (log10 of the value in µM)
Log10 applied to Ki; unit prior to transform: µM.

// solved cases for log10 of Ki follow
QUERY: Requested field: log10 of Ki. Item: COC(=O)C1=C(C)NC(C)=C(C(=O)NCCCN2CCC(c3ccccc3)(c3ccccc3)CC2)C1c1ccc([N+](=O)[O-])c(C)c1 (stereo not drawn)
RESULT: 1.24

QUERY: If you can, please state the reported log10 of Ki value of COC(=O)C1=C(C)NC(C)=C(C(=O)NCCCN2CCC(c3ccccc3)(c3ccccc3)CC2)C1Cc1ccccc1 (stereo not drawn) .
RESULT: 1.06

QUERY: # lookup: log10 of Ki of COC(=O)C1=C(C)NC(C)=C(C(=O)NCCCN2CCC(c3ccccc3)CC2)C1c1cccc([N+](=O)[O-])c1 (stereo not drawn)
RESULT: -1.02

QUERY: Recorded log10 of Ki of COC(=O)C1=C(C)NC(C)=C(C(=O)NCCCN2CCC(c3ccccc3)(c3ccccc3)CC2)C1c1ccoc1 (stereo not drawn) , please.
RESULT: -0.54

QUERY: What does the record list as log10 of Ki for COC(=O)C1=C(C)NC(C)=C(C(=O)NCCCN2CCCCC2)C1c1ccc([N+](=O)[O-])cc1 (stereo not drawn) ?
RESULT: 3.00

Then there is this molecule:
QUERY: So what does the record say about log10 of Ki for CCC1=C(C(=O)NC2CCN(Cc3ccccc3)CC2)C(c2ccc([N+](=O)[O-])cc2)C(C(=O)OC)=C(C)N1 (stereo not drawn) [Example 75, hydrochloride] ?
RESULT: 0.55

----------
# Ki listing for each entry below
# tgt: α1B Human Adrenergic Receptor (Homo sapiens, UniProt P35368)
# Construct: The entire coding region of α1B (1563 bp); expressed in transfected cells
# Sequence (P35368 1-520): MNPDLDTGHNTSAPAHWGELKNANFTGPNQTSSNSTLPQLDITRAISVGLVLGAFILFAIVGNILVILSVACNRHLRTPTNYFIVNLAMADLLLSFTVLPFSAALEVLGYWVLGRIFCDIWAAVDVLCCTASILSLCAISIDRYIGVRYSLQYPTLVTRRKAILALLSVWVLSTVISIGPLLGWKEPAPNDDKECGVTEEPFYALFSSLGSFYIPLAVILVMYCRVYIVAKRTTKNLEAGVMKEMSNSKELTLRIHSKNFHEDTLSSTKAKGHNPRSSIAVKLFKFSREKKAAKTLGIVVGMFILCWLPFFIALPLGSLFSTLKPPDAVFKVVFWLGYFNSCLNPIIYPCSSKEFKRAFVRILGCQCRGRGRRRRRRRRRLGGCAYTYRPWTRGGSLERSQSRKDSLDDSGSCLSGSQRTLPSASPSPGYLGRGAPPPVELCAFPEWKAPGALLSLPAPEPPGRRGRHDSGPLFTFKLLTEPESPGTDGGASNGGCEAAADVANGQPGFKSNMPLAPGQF
# measurementDescription: Radioligand binding, [3H]prazosin, cloned human α1B adrenergic receptor
# conditionInfo: cloned human α1B receptor, LM(tk−) cell membranes, read-out: pKi alpha-1 1b (converted)
Structures can show the parent of a compound that is named as a salt.
Numbers only here, please. The scale is nM.

QUERY: Could you tell me which Ki is on file for CCC1=C(C(=O)NCCCN2CCC(c3ccccc3)(c3ccccc3)CC2)C(c2ccc([N+](=O)[O-])cc2)C(C(=O)OC(C)(C)C)=C(COCCN)N1 (stereo not drawn) ?
RESULT: 14500

QUERY: Need Ki, item CCC1=C(C(=O)NCCCN2CCC(c3ccccc3)(c3ccccc3)CC2)C(c2ccc(N)cc2)C(C(=O)OC)=C(C)N1 (stereo not drawn)
RESULT: 204

QUERY: Could you share which Ki value was measured for CCCC1=C(C(=O)NCC)C(c2ccc([N+](=O)[O-])cc2)C(C(=O)NCCCN2CCC(c3ccccc3)(c3ccccc3)CC2)=C(CCC)N1 (stereo not drawn) ?
RESULT: 178

QUERY: Looking for the measured Ki of CCC1=C(C(=O)O)C(c2ccc([N+](=O)[O-])cc2)C(C(=O)NCCCN2CCC(c3ccccc3)(c3ccccc3)CC2)=C(CC)N1 (stereo not drawn) , can you help?
RESULT: 417

QUERY: Which Ki value is on record for CC1=C(C(=O)O)C(c2ccc([N+](=O)[O-])cc2)C(C(=O)NCCCN2CCC(c3ccccc3)(c3ccccc3)CC2)=C(COCCN=[N+]=[N-])N1 (stereo not drawn) ?
RESULT: 380

Continuing:
QUERY: Can you share its Ki? I mean this molecule: CCC1=C(C(N)=O)C(c2ccc([N+](=O)[O-])cc2)C(C(=O)NCCCN2CCN(c3ccccc3OC)CC2)=C(CC)N1 (stereo not drawn)
RESULT: 129

QUERY: # input molecule: COC(=O)C1=C(C)N(C)C(C)=C(C(=O)OCCCN2CCC(c3ccccc3)(c3ccccc3)CC2)C1c1ccc([N+](=O)[O-])cc1 (stereo not drawn) [Example 92, hydrochloride hydrate] ; wanted: its Ki
RESULT: 58.9

QUERY: # Ki lookup, item CCNC(=O)C1=C(CC)NC(COCCN=[N+]=[N-])=C(C(=O)NCCCN2CCC(c3ccccc3)(c3ccccc3)CC2)C1c1ccc([N+](=O)[O-])cc1 (stereo not drawn)
RESULT: 324
